Hello, the source for this data is patent US20250250357A1, in case you need it.

Exercise: state measured OD450 for each of the binders provided.
Target: T1, human MSLN-R1-his protein (human, UniProt Q13421 296-390)
T1 construct: Region 1 of human mesothelin, made in HEK293E cells, His-tagged; also called human MSLN-R1 protein; hMSLN-R1-his; not shown: His tag
T1 chain: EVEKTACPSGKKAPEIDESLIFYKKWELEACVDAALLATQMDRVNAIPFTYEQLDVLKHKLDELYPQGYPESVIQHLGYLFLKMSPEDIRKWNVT
Test method notes: ELISA on coated MSLN-R1; antibody 100 nM
Enter your answer as a number in OD450; do not include the unit.

[ask] Quick one: OD450 of S009-F8-22.23 (antibody, human IgG1, kappa, V domains shown) VH: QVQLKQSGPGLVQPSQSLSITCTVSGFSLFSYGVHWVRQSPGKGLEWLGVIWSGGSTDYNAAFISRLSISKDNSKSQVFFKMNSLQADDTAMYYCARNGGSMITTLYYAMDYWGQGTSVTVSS VL: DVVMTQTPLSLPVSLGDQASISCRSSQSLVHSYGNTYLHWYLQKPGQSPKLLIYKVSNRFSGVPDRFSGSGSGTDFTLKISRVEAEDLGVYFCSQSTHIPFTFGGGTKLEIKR ?
[reply] 2.55

[ask] Requested read-out: OD450. Entry: S009-F8-15.19 (antibody, human IgG1, kappa, V domains shown) VH: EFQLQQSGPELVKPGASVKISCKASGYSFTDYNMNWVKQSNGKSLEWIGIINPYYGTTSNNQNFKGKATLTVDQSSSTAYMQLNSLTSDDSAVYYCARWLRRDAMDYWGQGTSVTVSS VL: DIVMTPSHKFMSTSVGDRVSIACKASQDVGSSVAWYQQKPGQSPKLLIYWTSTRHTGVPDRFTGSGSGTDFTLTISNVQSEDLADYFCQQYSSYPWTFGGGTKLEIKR
[reply] 2.07

[ask] Name the reported OD450 value associated with the binder S009-F8-27.1 (antibody, human IgG1, kappa, V domains shown) VH: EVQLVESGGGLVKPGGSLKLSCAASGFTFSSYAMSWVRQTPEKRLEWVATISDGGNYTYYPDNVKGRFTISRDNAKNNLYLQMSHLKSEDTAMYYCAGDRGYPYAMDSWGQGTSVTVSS VL: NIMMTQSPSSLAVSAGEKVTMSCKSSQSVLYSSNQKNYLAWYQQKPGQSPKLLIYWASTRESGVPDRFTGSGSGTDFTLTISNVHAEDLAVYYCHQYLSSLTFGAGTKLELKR
[reply] 0.35

[ask] Any idea what OD450 was measured for S009-F8-12.13 (antibody, human IgG1, kappa, V domains shown) VH: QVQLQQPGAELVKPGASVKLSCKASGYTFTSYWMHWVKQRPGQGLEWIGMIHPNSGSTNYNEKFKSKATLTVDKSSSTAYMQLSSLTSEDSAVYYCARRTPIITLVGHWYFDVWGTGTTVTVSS VL: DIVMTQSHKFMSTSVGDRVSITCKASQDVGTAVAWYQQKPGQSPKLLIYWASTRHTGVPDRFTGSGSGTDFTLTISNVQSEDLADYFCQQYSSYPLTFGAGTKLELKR ?
[reply] 2.17

[ask] Recorded OD450 of S009-F8-7.5 (antibody, human IgG1, kappa, V domains shown) VH: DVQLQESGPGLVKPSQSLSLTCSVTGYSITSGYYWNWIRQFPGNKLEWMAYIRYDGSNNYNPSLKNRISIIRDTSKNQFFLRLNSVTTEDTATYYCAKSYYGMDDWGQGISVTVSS VL: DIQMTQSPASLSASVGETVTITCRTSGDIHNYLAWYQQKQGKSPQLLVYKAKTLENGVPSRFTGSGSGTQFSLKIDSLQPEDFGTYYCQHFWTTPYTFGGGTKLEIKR , please.
[reply] 0.12
